experiment: Rat PK, oral gavage; format: in vivo, Sprague-Dawley rats; conditions: male, Sprague-Dawley, rat, whole blood and plasma, po, 10 mg/kg, AUClast in blood divided by AUClast in plasma; rats, oral gavage 10 mg/kg
observed property: blood plasma ratio
No unit in the answer, please; the number alone is enough.

What blood plasma ratio value was documented for this compound, `O=Cc1c(O)cccc1OC[C@@H]1COCCN1C(=O)c1ccccc1CO` ? 59

What blood plasma ratio value was documented for this compound, `O=Cc1c(O)cccc1OC[C@@H]1CCCCN1C(=O)c1cccnc1CCO` ? 162

What blood plasma ratio value was documented for this compound, O=Cc1c(O)cccc1OCC1CSCCN1C(=O)c1ccccc1CO (single isomer, unassigned) [40 (Enantiomer 2)] ? 424

What blood plasma ratio value was documented for this compound, `O=Cc1c(O)cccc1OC[C@@H]1CCCCN1C(=O)c1cccnc1CO` ? 126

What blood plasma ratio value was documented for this compound, O=Cc1c(O)cccc1OCC1CSCCN1C(=O)c1cccnc1CCO (single isomer, unassigned) [10 (Enantiomer 2)] ? 212

What blood plasma ratio value was documented for this compound, `O=Cc1c(O)cccc1OC[C@@H]1COCCN1C(=O)c1cccnc1CO` ? 131

What blood plasma ratio value was documented for this compound, O=Cc1c(O)cccc1OC[C@@H]1CSCCN1C(=O)c1ccccc1C(O)CO (single isomer, unassigned) [35 (Diastereomer 1)] ? 493

What blood plasma ratio value was documented for this compound, `O=Cc1c(O)cccc1OC[C@@H]1COCCN1C(=O)c1cccnc1CCO` ? 105

What blood plasma ratio value was documented for this compound, O=Cc1c(O)cccc1OC[C@@H]1CCCCN1C(=O)c1cccnc1 [Reference Compound A, reference compound] ? 75

What blood plasma ratio value was documented for this compound, `COCCc1ncccc1C(=O)N1CCOC[C@H]1COc1cccc(O)c1C=O` ? 45

What blood plasma ratio value was documented for this compound, `CC(C)(O)Cc1ncccc1C(=O)N1CCOC[C@H]1COc1cccc(O)c1C=O` ? 52

What blood plasma ratio value was documented for this compound, O=Cc1c(O)cccc1OCC1CSCCN1C(=O)c1cccnc1CO (single isomer, unassigned) [Compound 13 (Enantiomer 1)] ? 230

###

Hi there, I'd appreciate the recorded Delta-p50 (%) for every entry that follows.
biological target: Hb (Homo sapiens, UniProt P68871+P69905); construct: from tissue; host or cells: whole blood; experiment: Whole blood assay: oxygen equilibrium curves (Hemox Analyzer), change in p50; format: cell-based; conditions: whole blood incubated 1 h at 37° C., equimolar ratio of hemoglobin to compound
Sequence (P69905 2-142 limits assumed): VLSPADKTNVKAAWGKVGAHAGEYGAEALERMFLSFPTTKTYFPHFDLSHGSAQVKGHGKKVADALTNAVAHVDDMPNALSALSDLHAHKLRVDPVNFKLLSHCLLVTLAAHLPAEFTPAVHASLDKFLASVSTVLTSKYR
Sequence (P68871 2-147 limits assumed): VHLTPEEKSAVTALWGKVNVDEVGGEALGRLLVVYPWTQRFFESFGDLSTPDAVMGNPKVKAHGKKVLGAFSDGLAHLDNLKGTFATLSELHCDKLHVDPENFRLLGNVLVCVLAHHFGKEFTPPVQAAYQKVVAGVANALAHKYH
I only need the number, in %, no unit after it.

What Delta-p50 (%) value was documented for this compound, `O=Cc1c(O)cccc1OC[C@@H]1COCCN1C(=O)c1ccccc1CCO` ? 70.32

What Delta-p50 (%) value was documented for this compound, `O=Cc1c(O)cccc1OC[C@@H]1CCCCN1C(=O)c1cccnc1CCCO` ? 79.67

What Delta-p50 (%) value was documented for this compound, `N#CCCc1ncccc1C(=O)N1CCC[C@H]1COc1cccc(O)c1C=O` ? 74.19

What Delta-p50 (%) value was documented for this compound, `O=Cc1c(O)cccc1OC[C@@H]1COCCN1C(=O)c1nccnc1CO` ? 49.03

What Delta-p50 (%) value was documented for this compound, CC(O)Cc1ncccc1C(=O)N1CCSC[C@H]1COc1cccc(O)c1C=O (single isomer, unassigned) [44 (Diastereomer 1)] ? 66.57
